# Target system: Gal(b1-4)GlcNAc(b1-3)Gal(b1-4)GlcNAc(b1-3)Gal(b1-4)GlcNAc(b1-2)Man(a1-3)[Gal(b1-4)GlcNAc(b1-3)Gal(b1-4)GlcNAc(b1-3)Gal(b1-4)GlcNAc(b1-2)Man(a1-6)]Man(b1-4)GlcNAc(b1-4)[Fuc(a1-6)]GlcNAc
# Test protocol: glycan array binding signal (z-score within array); higher = stronger binding
# Test parameters: glycan notation: IUPAC condensed, linker removed
This excerpt belongs to a sample that is enriched for the strongest signals.
Property name: glycan array binding signal (z-score)
Answer with a number only.

glycan array binding signal (z-score) recorded for this binder, CBP21 (Serratia marcescens), O83009 (protein) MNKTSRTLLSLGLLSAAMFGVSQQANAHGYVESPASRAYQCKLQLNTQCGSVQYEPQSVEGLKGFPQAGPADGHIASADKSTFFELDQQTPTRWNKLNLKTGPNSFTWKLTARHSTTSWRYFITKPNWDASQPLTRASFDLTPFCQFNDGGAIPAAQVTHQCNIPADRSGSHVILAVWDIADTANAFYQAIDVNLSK , is 2.68

glycan array binding signal (z-score) recorded for this binder, Aap arpt (Staphylococcus epidermidis) (protein) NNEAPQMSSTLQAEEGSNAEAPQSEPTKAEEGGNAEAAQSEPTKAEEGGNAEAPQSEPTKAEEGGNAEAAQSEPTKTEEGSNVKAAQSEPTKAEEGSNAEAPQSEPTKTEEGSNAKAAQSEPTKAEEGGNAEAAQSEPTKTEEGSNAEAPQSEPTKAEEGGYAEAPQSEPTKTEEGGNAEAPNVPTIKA , is 2.73

glycan array binding signal (z-score) recorded for this binder, SJCP1084 (Schistosoma japonicum) (protein) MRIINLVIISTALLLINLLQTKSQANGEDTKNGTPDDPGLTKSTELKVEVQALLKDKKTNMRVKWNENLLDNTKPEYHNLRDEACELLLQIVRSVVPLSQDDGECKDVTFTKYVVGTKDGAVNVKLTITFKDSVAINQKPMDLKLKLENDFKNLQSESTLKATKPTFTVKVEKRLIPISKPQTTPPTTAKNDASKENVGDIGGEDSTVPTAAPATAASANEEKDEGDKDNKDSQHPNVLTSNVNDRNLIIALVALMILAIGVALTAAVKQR , is 3.35

glycan array binding signal (z-score) recorded for this binder, Epa19 (Candida glabrata) (protein) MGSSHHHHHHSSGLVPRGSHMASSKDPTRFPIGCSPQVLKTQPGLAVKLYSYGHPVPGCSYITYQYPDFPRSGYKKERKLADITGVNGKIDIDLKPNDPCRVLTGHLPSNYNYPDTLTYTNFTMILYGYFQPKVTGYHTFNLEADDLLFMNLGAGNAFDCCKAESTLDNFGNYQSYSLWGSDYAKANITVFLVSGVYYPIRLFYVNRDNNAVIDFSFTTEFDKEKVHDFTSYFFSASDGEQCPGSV , is 0.256

glycan array binding signal (z-score) recorded for this binder, F17-L (Escherichia coli) (protein) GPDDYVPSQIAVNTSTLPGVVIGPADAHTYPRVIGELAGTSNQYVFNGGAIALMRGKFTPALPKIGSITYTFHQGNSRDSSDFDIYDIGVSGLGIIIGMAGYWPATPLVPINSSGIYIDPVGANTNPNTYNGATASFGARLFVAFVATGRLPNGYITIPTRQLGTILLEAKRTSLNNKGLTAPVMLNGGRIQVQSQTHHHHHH , is 0.05

glycan array binding signal (z-score) recorded for this binder, HA-61200 (Pseudomonas aeruginosa), Q02SP8_PSEAB (protein) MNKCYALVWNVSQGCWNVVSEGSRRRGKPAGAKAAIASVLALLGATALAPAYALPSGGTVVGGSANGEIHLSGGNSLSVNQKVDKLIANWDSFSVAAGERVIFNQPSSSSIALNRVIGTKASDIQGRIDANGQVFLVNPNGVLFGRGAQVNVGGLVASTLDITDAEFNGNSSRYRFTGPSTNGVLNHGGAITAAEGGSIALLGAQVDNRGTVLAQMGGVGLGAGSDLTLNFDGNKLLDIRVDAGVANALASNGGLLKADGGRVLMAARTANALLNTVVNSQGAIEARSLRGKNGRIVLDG , is 3.46
